Listed next: entries and their corresponding MIC.
# Test system: Mycobacterium tuberculosis
# run-description: Antituberculosis activity against Mycobacterium tuberculosis H37Rv under aerobic conditions by microplate alamar blue assay
# Type: functional
Numeric only. Scale: µM

INSERT INTO assay_data (compound, value_kind, result_number) VALUES
  ('O=[N+]([O-])c1cn2c(n1)OC[C@@H](Oc1ccc(-c3ccc(F)cc3)nc1)C2', 'MIC', 0.5);

INPUT: Bench note: what MIC did O=[N+]([O-])c1cn2c(n1)OC[C@@H](OCCOc1ccc(C(F)(F)F)nc1)C2 show?
OUTPUT: 0.79

INPUT: Reported MIC, molecule O=[N+]([O-])c1cn2c(n1)OC[C@@H](Oc1ccnc(-c3ccc(OC(F)(F)F)cc3)c1)C2 : ____
OUTPUT: 0.3

----------
List of log10 AUC(0-inf) values.
# run-description: AUC (0 to infinity) in lung of CD1 mouse at 40 mg/kg, po
# Format: ADME, organism-based
# Design: time infinity, dose 40 mg/kg, route oral
Could you please treat all values as log10 of AUC(0-inf) in ng·h/mL?

For orientation, consider the following solved cases.
INSERT INTO results (compound, result_number) VALUES
  ('O=[N+]([O-])c1cn2c(n1)OC[C@@H](Oc1ccc(-c3ccc(OC(F)(F)F)cc3)cc1)C2', 5.54),
  ('O=[N+]([O-])c1cn2c(n1)OC[C@@H](OCC#Cc1cccc(-c3ccc(OC(F)(F)F)cc3)c1)C2', 5.41),
  ('O=[N+]([O-])c1cn2c(n1)OC[C@@H](OCCCC#Cc1ccc(OC(F)(F)F)cc1)C2', 3.88),
  ('O=[N+]([O-])c1cn2c(n1)OC[C@@H](OCCCc1ccc(-c3ccc(OC(F)(F)F)cc3)cc1)C2', 4.47);

INPUT: # get_value(readout='log10 AUC(0-inf)', item= O=[N+]([O-])c1cn2c(n1)OC[C@@H](OCC#Cc1ccc(-c3ccc(OC(F)(F)F)cc3)cc1)C2 )
OUTPUT: 4.13

----------
Reported solubility by item:
# run-description: Aqueous solubility of the compound in water at pH 7 by HPLC analysis
# Format: physicochemical
Write the value in µg/mL as a bare number.

Below, each entry is followed by its recorded solubility result.
INSERT INTO assay_data (molecule, result_number) VALUES
  ('O=[N+]([O-])c1cn2c(n1)OC[C@@H](Oc1cccc(-c3ccc(OC(F)(F)F)cc3)n1)C2', 0.12),
  ('O=[N+]([O-])c1cn2c(n1)OC[C@@H](Oc1ncc(-c3ccc(OC(F)(F)F)cc3)cn1)C2', 1.7),
  ('O=[N+]([O-])c1cn2c(n1)OC[C@@H](OCC#Cc1ccc(C(F)(F)F)cn1)C2', 8.4),
  ('O=[N+]([O-])c1cn2c(n1)OC[C@@H](OC/C=C/c1ccc(C(F)(F)F)cn1)C2', 29),
  ('O=[N+]([O-])c1cn2c(n1)OC[C@@H](OCCCC#Cc1ccc(C(F)(F)F)cn1)C2', 28),
  ('O=[N+]([O-])c1cn2c(n1)OC[C@@H](OCCCc1ccc(C(F)(F)F)nc1)C2', 168),
  ('O=[N+]([O-])c1cn2c(n1)OC[C@@H](OCC#Cc1ccc(C(F)(F)F)nc1)C2', 11),
  ('O=[N+]([O-])c1cn2c(n1)OC[C@@H](OCC#Cc1ccc(OCc3ccccc3)cc1)C2', 0.43);

INPUT: # get_value(readout='solubility', item= O=[N+]([O-])c1cn2c(n1)OC[C@@H](OCC#Cc1cccc(-c3ccc(OC(F)(F)F)cc3)c1)C2 )
OUTPUT: 0.27

INPUT: Bench note: what solubility did O=[N+]([O-])c1cn2c(n1)OC[C@@H](OCC#Cc1ccc(OC(F)(F)F)cc1)C2 show?
OUTPUT: 0.77

INPUT: Report solubility for O=[N+]([O-])c1cn2c(n1)OC[C@@H](OCCOc1ccc(OC(F)(F)F)cc1)C2 please.
OUTPUT: 50

----------
# Tested on: Mycobacterium tuberculosis
# run-description: Antituberculosis activity against Mycobacterium tuberculosis H37Rv under aerobic conditions by microplate alamar blue assay
# Assay type: functional
# MIC binned as A (below 0.09 µM), B (0.09 µM to below 0.6 µM), C (0.6 µM or more)

INPUT: Bin this entry: O=[N+]([O-])c1cn2c(n1)OC[C@@H](OCCOc1ncc(-c3ccc(C(F)(F)F)cc3)cn1)C2
OUTPUT: B

INPUT: Band for O=[N+]([O-])c1cn2c(n1)OC[C@@H](OCCOc1ccc(-c3ccc(OC(F)(F)F)cc3)cc1)C2 ?
OUTPUT: A

----------
# Tested on: Mycobacterium tuberculosis
# run-description: Antituberculosis activity against Mycobacterium tuberculosis H37Rv under aerobic conditions by microplate alamar blue assay
# Assay type: functional
value-kind: log10 of MIC (log10 of the value in µM)
Scale: log10; quantity: MIC; unit before log: µM

Would you please look over these solved cases?
INSERT INTO measurements (compound, system_under_test, result_number) VALUES
  ('O=[N+]([O-])c1cn2c(n1)OC[C@@H](OCC#Cc1ccc(-c3ccc(F)cc3)cc1)C2', 'Mycobacterium tuberculosis', -1.46),
  ('O=[N+]([O-])c1cn2c(n1)OC[C@@H](OCC#Cc1ccc(-c3ccc(OC(F)(F)F)cc3)cn1)C2', 'Mycobacterium tuberculosis', -1.60),
  ('CC(O[C@@H]1COc2nc([N+](=O)[O-])cn2C1)c1ccc(-c2ccc(OC(F)(F)F)cc2)cc1 (stereo partly drawn)', 'Mycobacterium tuberculosis', -0.72),
  ('O=[N+]([O-])c1cn2c(n1)OC[C@@H](OCCCC#Cc1ccc(C(F)(F)F)cn1)C2', 'Mycobacterium tuberculosis', -0.72),
  ('O=[N+]([O-])c1cn2c(n1)OC[C@@H](OCC#Cc1ccc(-c3ccc(F)cc3)cn1)C2', 'Mycobacterium tuberculosis', -1.30);

INPUT: Give the measured log10 of MIC of O=[N+]([O-])c1cn2c(n1)OC[C@@H](OCC#Cc1cccc(-c3ccc(C(F)(F)F)cc3)c1)C2 .
OUTPUT: -0.57

INPUT: What log10 of MIC value was documented for this compound, O=[N+]([O-])c1cn2c(n1)OC[C@@H](OCC#Cc1cccc(-c3ccc(OC(F)(F)F)cc3)c1)C2 ?
OUTPUT: -0.96

INPUT: # get_value(readout='log10 of MIC', item= O=[N+]([O-])c1cn2c(n1)OC[C@@H](Oc1cccc(-c3ccc(OC(F)(F)F)cc3)n1)C2 )
OUTPUT: -0.62

INPUT: Fill in: log10 of MIC of O=[N+]([O-])c1cn2c(n1)OC[C@@H](OCC#Cc1ccc(-c3ccc(C(F)(F)F)cc3)cc1)C2 is ___
OUTPUT: -0.66

INPUT: Given the entry O=[N+]([O-])c1cn2c(n1)OC[C@@H](Oc1ccc(-c3ccc(F)cc3)cc1)C2 , report its measured log10 of MIC.
OUTPUT: -0.51

INPUT: Param item = O=[N+]([O-])c1cn2c(n1)OC[C@@H](OCC#Cc1ccc(OC(F)(F)F)cc1)C2 ; retrieve measured log10 of MIC.
OUTPUT: -0.92

INPUT: Find the recorded log10 of MIC belonging to O=[N+]([O-])c1cn2c(n1)OC[C@@H](Oc1cc(-c3ccc(OC(F)(F)F)cc3)ncn1)C2 and report it.
OUTPUT: 0.32

INPUT: Quick one: log10 of MIC for O=[N+]([O-])c1cn2c(n1)OC[C@@H](OCCOc1ccc(-c3ccc(OC(F)(F)F)cc3)cn1)C2 ?
OUTPUT: -1.40

INPUT: Quick check: log10 of MIC of O=[N+]([O-])c1cn2c(n1)OC[C@@H](OC/C=C/c1ccc(OC(F)(F)F)cc1)C2 ?
OUTPUT: -1.30

INPUT: Would you mind telling me what log10 of MIC value was observed for O=[N+]([O-])c1cn2c(n1)OC[C@@H](OCCOc1ccc(OC(F)(F)F)cc1)C2 ?
OUTPUT: -1.40

INPUT: Consider the compound shown here: O=[N+]([O-])c1cn2c(n1)OC[C@@H](Oc1ncc(-c3ccc(OC(F)(F)F)cc3)cn1)C2 What is its recorded log10 of MIC?
OUTPUT: -0.66

INPUT: What does the record list as log10 of MIC for O=[N+]([O-])c1cn2c(n1)OC[C@@H](OCC#Cc1ccc(C(F)(F)F)cn1)C2 ?
OUTPUT: -0.92

INPUT: Form field: reported log10 of MIC of CC(O[C@@H]1COc2nc([N+](=O)[O-])cn2C1)c1ccc(-c2ccc(C(F)(F)F)nc2)cc1 (stereo partly drawn)
OUTPUT: -0.41
